Source listed as ChEMBL document CHEMBL1132897.

Study Target: Insulin receptor (Homo sapiens) (UniProt P06213)
Sequence (P06213 28-758 limits assumed): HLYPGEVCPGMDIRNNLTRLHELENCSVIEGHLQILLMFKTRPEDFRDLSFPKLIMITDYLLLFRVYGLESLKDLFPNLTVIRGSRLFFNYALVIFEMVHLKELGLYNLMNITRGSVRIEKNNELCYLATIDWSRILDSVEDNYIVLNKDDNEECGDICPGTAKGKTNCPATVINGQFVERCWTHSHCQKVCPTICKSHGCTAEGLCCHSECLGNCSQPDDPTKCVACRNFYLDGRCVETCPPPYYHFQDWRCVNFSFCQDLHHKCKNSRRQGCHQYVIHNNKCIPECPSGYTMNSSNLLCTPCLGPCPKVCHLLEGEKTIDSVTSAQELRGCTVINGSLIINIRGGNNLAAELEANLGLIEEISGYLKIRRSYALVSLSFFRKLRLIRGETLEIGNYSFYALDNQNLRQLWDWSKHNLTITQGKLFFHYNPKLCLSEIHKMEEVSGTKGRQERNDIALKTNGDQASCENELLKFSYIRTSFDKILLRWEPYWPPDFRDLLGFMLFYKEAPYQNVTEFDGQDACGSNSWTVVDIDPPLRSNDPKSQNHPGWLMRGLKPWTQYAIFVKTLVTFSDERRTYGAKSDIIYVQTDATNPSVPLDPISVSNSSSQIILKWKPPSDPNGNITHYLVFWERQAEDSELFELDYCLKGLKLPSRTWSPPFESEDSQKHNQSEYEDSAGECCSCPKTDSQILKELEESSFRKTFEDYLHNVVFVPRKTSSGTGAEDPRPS
Sequence (P06213 763-1382 limits assumed): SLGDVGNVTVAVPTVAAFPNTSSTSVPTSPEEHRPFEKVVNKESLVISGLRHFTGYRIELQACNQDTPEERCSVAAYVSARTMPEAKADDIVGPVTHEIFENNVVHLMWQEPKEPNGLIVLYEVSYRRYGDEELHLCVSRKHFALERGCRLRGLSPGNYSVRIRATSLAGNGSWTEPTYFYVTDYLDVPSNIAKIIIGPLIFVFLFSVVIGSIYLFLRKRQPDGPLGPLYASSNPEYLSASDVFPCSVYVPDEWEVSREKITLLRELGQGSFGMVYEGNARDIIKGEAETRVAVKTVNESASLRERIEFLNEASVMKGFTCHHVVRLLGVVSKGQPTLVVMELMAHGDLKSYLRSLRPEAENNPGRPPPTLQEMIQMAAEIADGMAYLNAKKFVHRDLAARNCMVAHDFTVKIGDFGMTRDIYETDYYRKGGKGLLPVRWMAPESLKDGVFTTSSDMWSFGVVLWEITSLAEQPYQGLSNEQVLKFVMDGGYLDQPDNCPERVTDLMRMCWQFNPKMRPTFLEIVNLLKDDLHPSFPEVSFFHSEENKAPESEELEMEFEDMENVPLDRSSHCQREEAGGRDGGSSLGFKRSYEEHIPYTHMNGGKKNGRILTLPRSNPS
Assay Details: Percent activation of insulin receptor in CHO cells by 10 uM of compound
Assay type: cell-based
This listing pairs compounds with measured Activation.
Could you give me the number in %? Just the number is fine.

C=CC(C)(C)c1[nH]c2ccccc2c1C1=C(OC)C(=O)C(c2c[nH]c3c(CC=C(C)C)cccc23)=C(OC)C1=O; 0

// field: Activation; key: C=CC(C)(C)c1[nH]c2ccccc2c1C1=C(O)C(N)=C(c2c[nH]c3c(CC=C(C)C)cccc23)C(=O)C1=O ; value = 2

// field: Activation; key: C=CC(C)(C)c1[nH]c2ccccc2c1C1=C(O)C(O)=C(c2c[nH]c3c(CCC(C)(C)O)cccc23)C(=O)C1=O ; value = 35

// field: Activation; key: C=CC(C)(C)c1[nH]c2ccccc2c1C1=C(O)C(O)=C(c2cn(C)c3c(CC=C(C)C)cccc23)C(=O)C1=O ; value = 24

====

This listing pairs compounds with measured Activation.
Study Target: Insulin receptor (Homo sapiens)
Assay Details: Percent activation of insulin receptor in CHO cells by 10 uM of compound
Type: cell-based
Could you give me the number in %? Just the number is fine.

Use the examples below as a reference point.
CCC(C)(C)c1[nH]c2ccccc2c1C1=C(O)C(O)=C(c2c[nH]c3c(CC=C(C)C)cccc23)C(=O)C1=O; 82
C=CC(C)(C)c1[nH]c2ccccc2c1C1=C(O)C(O)=C(c2c[nH]c3c(CC(O)C(C)(C)O)cccc23)C(=O)C1=O (configuration not stated); 75
C=CC(C)(C)c1[nH]c2ccccc2c1C1=C(OS(=O)(=O)C(F)(F)F)C(=O)C(c2c[nH]c3c(CC=C(C)C)cccc23)=C(OS(=O)(=O)C(F)(F)F)C1=O; 0
CCC(C)(C)c1[nH]c2ccccc2c1C1=C(O)C(O)=C(c2c[nH]c3c(CCC(C)C)cccc23)C(=O)C1=O; 57
C=CC(C)(C)c1[nH]c2ccccc2c1C1=C(O)C(=N\C)/C(c2c[nH]c3c(CC=C(C)C)cccc23)=C(O)C/1=N/C; 1

// field: Activation; key: C=CC(C)(C)c1[nH]c2ccccc2c1C1=C(OC)C(=O)C(c2c[nH]c3c(CC=C(C)C)cccc23)=C(O)C1=O ; value = 16

// field: Activation; key: C=CC(C)(C)c1c(C2=C(O)C(O)=C(c3c[nH]c4c(CCC(C)(C)O)cccc34)C(=O)C2=O)c2ccccc2n1C ; value = 79

====

Study Target: Insulin receptor (Homo sapiens)
Assay Details: Ability to activate the insulin receptor compared to that of lead structure 1 expressed as X/1
Quick rule: Relative activity of at least 0.03 means Yes, below that means No.

Decide: Relative activity of C=CC(C)(C)c1[nH]c2ccccc2c1C1=C(O)C(O)=C(c2c[nH]c3c(CCC(C)(C)OC(=O)C(F)(F)F)cccc23)C(=O)C1=O >= 0.03? Yes

Decide: Relative activity of C=CC(C)(C)c1[nH]c2ccccc2c1C1=C(OS(=O)(=O)C(F)(F)F)C(=O)C(c2c[nH]c3c(CC=C(C)C)cccc23)=C(OS(=O)(=O)C(F)(F)F)C1=O >= 0.03? No

Decide: Relative activity of C=CC(C)(C)c1[nH]c2ccccc2c1C1=C(OC)C(=O)C(c2c[nH]c3c(CC=C(C)C)cccc23)=C(OC)C1=O >= 0.03? No
